Each entry below lists one item and its recorded DC50 value.
- system: CDK6 protein (Homo sapiens)
- Construct: host or cells: OVCAR3
- Sequence (Q00534 whole entry): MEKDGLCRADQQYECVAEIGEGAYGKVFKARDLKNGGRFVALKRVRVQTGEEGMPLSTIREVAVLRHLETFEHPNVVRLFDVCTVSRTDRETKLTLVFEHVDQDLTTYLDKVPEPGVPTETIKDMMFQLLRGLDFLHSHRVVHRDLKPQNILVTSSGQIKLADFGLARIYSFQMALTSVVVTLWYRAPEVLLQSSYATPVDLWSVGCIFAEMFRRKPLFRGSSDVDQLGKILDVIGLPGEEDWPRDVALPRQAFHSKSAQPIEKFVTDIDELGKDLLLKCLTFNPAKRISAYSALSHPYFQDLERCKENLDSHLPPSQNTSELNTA
- procedure_text: CDK6 protein degradation in OVCAR3 cells (Western blot)
- Assay type: cell-based
- run_conditions: 24 h, read-out: DC50 CDK6 (half-maximum degradation concentration)

Solved cases below.
compound="Cc1nc2c(F)cc(-c3nc(Nc4ccc(S(=O)(=O)C5CCN(C6CCN(C7CN(c8cc9c(cc8F)C(=O)N(C8CCC(=O)NC8=O)C9=O)C7)CC6)CC5)cc4)ncc3F)cc2n1C(C)C (centres unmarked)" value_measured="> 200 nM"
compound="C[C@@]1(O)CCC[C@H]1n1c(=O)ccc2cnc(NC3CCN(S(=O)(=O)C4CCN(CC5CCN(C6CN(c7cc8c(cc7F)C(=O)N(C7CCC(=O)NC7=O)C8=O)C6)CC5)CC4)CC3)nc21 (some centres unmarked)" value_measured="< 10 nM"
compound="Cc1nc2c(F)cc(-c3nc(NC4CCN(S(=O)(=O)C5CCN(C6CN(C7CCN(c8cc9c(cc8F)C(=O)N(C8CCC(=O)NC8=O)C9=O)CC7)C6)CC5)CC4)ncc3F)cc2n1C(C)C (centres unmarked)" value_measured="< 10 nM"

What the record says about Cc1nc2c(F)cc(-c3nc(NC4CCN(S(=O)(=O)C5CCN(C6CCN(C7CN(c8cc9c(cc8F)C(=O)N(C8CCC(=O)NC8=O)C9=O)C7)CC6)CC5)CC4)ncc3F)cc2n1C(C)C (centres unmarked) : DC50 is 101 to 200 nM

What the record says about C[C@@]1(O)CCC[C@H]1n1c(=O)ccc2cnc(NC3CCN(S(=O)(=O)C4CCN(C5CC6(CCN(c7cc8c(cc7F)C(=O)N(C7CCC(=O)NC7=O)C8=O)CC6)C5)CC4)CC3)nc21 (some centres unmarked) : DC50 is > 200 nM

What the record says about Cc1nc2c(F)cc(-c3nc(NC4CCN(S(=O)(=O)C5CCN(CC6CCN(C7CN(c8cc9c(cc8F)C(=O)N(C8CCC(=O)NC8=O)C9=O)C7)CC6)CC5)CC4)ncc3F)cc2n1C(C)C (centres unmarked) : DC50 is < 10 nM

What the record says about Cc1nc2c(F)cc(-c3nc(NC4CCN(S(=O)(=O)C5CCN(CC6CC7(C6)CN(c6cc8c(cc6F)C(=O)N(C6CCC(=O)NC6=O)C8=O)C7)CC5)CC4)ncc3F)cc2n1C(C)C (centres unmarked) : DC50 is > 200 nM

What the record says about C[C@@]1(O)CCC[C@H]1n1c(=O)c(C(F)F)cc2cnc(NC3CCN(S(=O)(=O)C4CCN(CC5CCN(C6CN(c7cc8c(cc7F)C(=O)N(C7CCC(=O)NC7=O)C8=O)C6)CC5)CC4)CC3)nc21 (some centres unmarked) : DC50 is > 200 nM

* * *

Each entry below lists one item and its recorded pIC50 value.
- Tested on: OVCAR3 cells
- procedure_text: Cell proliferation study (Cell Titer Glo, 72 h)
- Type: cell-based
- run_conditions: Homo sapiens, OVCAR-3, luminescence, read-out: IC50, inhibitory effect on cellular proliferation
- Procedure: OVCAR3 (Cobioer, CBP60294) cell line in logarithmic growth phase was used for these experiments. The cell density was adjusted to 1.1×10^4/mL and the cells were inoculated into a 96-well cell culture plate (Corning, 3599), 95 μL per well (the number of cells per well was 1×10^3). […] To each well was added 50 μL Cell Tier Glo (Promega, G7573), and the plate was incubated at room temperature for 10 min, followed by luminescence detection with an enzyme marker. […]
pIC50: −log10 of the molar value.

Solved cases below.
molecule="Cc1nc2c(F)cc(-c3nc(NC4CCN(S(=O)(=O)C5CCN(C6CC7(CCN(c8cc9c(cc8F)C(=O)N(C8CCC(=O)NC8=O)C9=O)CC7)C6)CC5)CC4)ncc3F)cc2n1C(C)C (centres unmarked) [Compound 75]" value_measured="5.30 to 6.00"
molecule="Cc1nc2c(F)cc(-c3nc(Nc4ccc(S(=O)(=O)C5CCN(C6CN(C7CCN(c8cc9c(cc8F)C(=O)N(C8CCC(=O)NC8=O)C9=O)CC7)C6)CC5)cc4)ncc3F)cc2n1C(C)C (centres unmarked) [Compound 66]" value_measured="> 7.00"
molecule="CC(C)N1CCOc2c(F)cc(-c3nc(Nc4ccc(S(=O)(=O)N5CCN(C(=O)C6CCN(c7cccc8c7C(=O)N(C7CCC(=O)NC7=O)C8=O)CC6)CC5)cc4)ncc3F)cc21 (centres unmarked) [Compound 53]" value_measured="< 5.00"
molecule="Cc1nc2c(F)cc(-c3nc(Nc4ccc(S(=O)(=O)NCCOCCNc5cccc6c5C(=O)N(C5CCC(=O)NC5=O)C6=O)cc4)ncc3F)cc2n1C(C)C (centres unmarked) [Compound 47]" value_measured="5.30 to 6.00"

Let us examine a further case.
What the record says about Cc1nc2c(F)cc(-c3nc(N[C@@H]4CCN(S(=O)(=O)C5CCN(CC6CCN(c7cc8c(cc7F)C(=O)N(C7CCC(=O)NC7=O)C8=O)CC6)CC5)C[C@H]4O)ncc3F)cc2n1C(C)C (some centres unmarked) [Compound 111] : pIC50 is > 7.00

* * *

- system: CDK4 protein (Homo sapiens, UniProt P11802)
- Construct: host or cells: OVCAR3
- Sequence (P11802 whole entry): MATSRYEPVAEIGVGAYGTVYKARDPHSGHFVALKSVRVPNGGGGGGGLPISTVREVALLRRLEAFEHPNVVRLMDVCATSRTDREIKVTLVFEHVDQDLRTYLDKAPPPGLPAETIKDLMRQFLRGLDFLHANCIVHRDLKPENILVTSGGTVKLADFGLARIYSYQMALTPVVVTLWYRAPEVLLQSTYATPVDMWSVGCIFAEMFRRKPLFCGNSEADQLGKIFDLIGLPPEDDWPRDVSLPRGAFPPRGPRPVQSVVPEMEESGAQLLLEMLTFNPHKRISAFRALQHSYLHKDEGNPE
- procedure_text: CDK4 protein degradation in OVCAR3 cells (Western blot)
- Assay type: cell-based
- run_conditions: OVCAR-3, 50 nM test compound, 24 h, read-out: level of CDK4 protein degradation
Each entry below lists one item and its recorded percent CDK4 protein degradation at 0.05 µM value.

Solved cases below.
molecule="C[C@@]1(O)CCC[C@H]1n1c(=O)ccc2cnc(NC3CCN(S(=O)(=O)C4CCN(CC5CCN(C6CN(c7cc8c(cc7F)C(=O)N(C7CCC(=O)NC7=O)C8=O)C6)CC5)CC4)CC3)nc21 (some centres unmarked)" value_measured="31 to 60%"
molecule="Cc1nc2c(F)cc(-c3nc(NC4CCN(S(=O)(=O)C5CCN(C6CN(C7CCN(c8cc9c(cc8F)C(=O)N(C8CCC(=O)NC8=O)C9=O)CC7)C6)CC5)CC4)ncc3F)cc2n1C(C)C (centres unmarked)" value_measured="≤ 10%"
molecule="Cc1nc2c(F)cc(-c3nc(NC4CCN(S(=O)(=O)C5CCN(CC6CCN(C7CN(c8cc9c(cc8F)C(=O)N(C8CCC(=O)NC8=O)C9=O)C7)CC6)CC5)CC4)ncc3F)cc2n1C(C)C (centres unmarked)" value_measured="≤ 10%"
molecule="Cc1nc2c(F)cc(-c3nc(NC4CCN(S(=O)(=O)C5CCN(CC6CC7(C6)CN(c6cc8c(cc6F)C(=O)N(C6CCC(=O)NC6=O)C8=O)C7)CC5)CC4)ncc3F)cc2n1C(C)C (centres unmarked)" value_measured="≤ 10%"

What the record says about C[C@@]1(O)CCC[C@H]1n1c(=O)c(C(F)F)cc2cnc(NC3CCN(S(=O)(=O)C4CCN(CC5CCN(C6CN(c7cc8c(cc7F)C(=O)N(C7CCC(=O)NC7=O)C8=O)C6)CC5)CC4)CC3)nc21 (some centres unmarked) : percent CDK4 protein degradation at 0.05 µM is ≤ 10%

* * *

- system: CDK2 protein (Homo sapiens)
- Construct: host or cells: OVCAR3
- procedure_text: CDK2 protein degradation in OVCAR3 cells (Western blot)
- Type: cell-based
- run_conditions: 50 nM test compound, 24 h
- Description: OVCAR3 (Cobioer, CBP60294) cell line of exponential growth phase was inoculated on a 6-well cell culture plate (Corning, 3516) according to 3E5/well scheme; and the plate was incubated overnight in a 5%-carbon dioxide incubator at 37° C. […] The band gray value was analyzed (Image Lab). […] Half-maximum degradation concentrations (DC50s) of test compounds were calculated using GraphPad Prism and their values are shown in Table 4. […]
reported_property: level of CDK2 protein degradation

compound="Cc1nc2c(F)cc(-c3nc(NC4CCN(S(=O)(=O)C5CCN(CC6CC7(C6)CN(c6cc8c(cc6F)C(=O)N(C6CCC(=O)NC6=O)C8=O)C7)CC5)CC4)ncc3F)cc2n1C(C)C (centres unmarked) [Compound 88]" reported_property="level of CDK2 protein degradation" value_measured="+++ (greater than 60%)"
compound="Cc1nc2c(F)cc(-c3nc(NC4CCN(S(=O)(=O)C5CCN(C6CN(C7CCN(c8cc9c(cc8F)C(=O)N(C8CCC(=O)NC8=O)C9=O)CC7)C6)CC5)CC4)ncc3F)cc2n1C(C)C (centres unmarked) [Compound 79]" reported_property="level of CDK2 protein degradation" value_measured="+++ (greater than 60%)"
compound="C[C@@]1(O)CCC[C@H]1n1c(=O)ccc2cnc(NC3CCN(S(=O)(=O)C4CCN(C5CC6(CCN(c7cc8c(cc7F)C(=O)N(C7CCC(=O)NC7=O)C8=O)CC6)C5)CC4)CC3)nc21 (some centres unmarked) [Compound 94]" reported_property="level of CDK2 protein degradation" value_measured="+++ (greater than 60%)"
compound="Cc1nc2c(F)cc(-c3nc(NC4CCN(S(=O)(=O)C5CCN(CC6CCN(C7CN(c8cc9c(cc8F)C(=O)N(C8CCC(=O)NC8=O)C9=O)C7)CC6)CC5)CC4)ncc3F)cc2n1C(C)C (centres unmarked) [Compound 80]" reported_property="level of CDK2 protein degradation" value_measured="++ (31 to 60%)"
compound="Cc1nc2c(F)cc(-c3nc(NC4CCN(S(=O)(=O)C5CCN(C6CCN(C7CN(c8cc9c(cc8F)C(=O)N(C8CCC(=O)NC8=O)C9=O)C7)CC6)CC5)CC4)ncc3F)cc2n1C(C)C (centres unmarked) [Compound 83]" reported_property="level of CDK2 protein degradation" value_measured="++ (31 to 60%)"
compound="C[C@@]1(O)CCC[C@H]1n1c(=O)c(C(F)F)cc2cnc(NC3CCN(S(=O)(=O)C4CCN(CC5CCN(C6CN(c7cc8c(cc7F)C(=O)N(C7CCC(=O)NC7=O)C8=O)C6)CC5)CC4)CC3)nc21 (some centres unmarked) [Compound 37]" reported_property="level of CDK2 protein degradation" value_measured="+++ (greater than 60%)"
compound="C[C@@]1(O)CCC[C@H]1n1c(=O)ccc2cnc(NC3CCN(S(=O)(=O)C4CCN(CC5CCN(C6CN(c7cc8c(cc7F)C(=O)N(C7CCC(=O)NC7=O)C8=O)C6)CC5)CC4)CC3)nc21 (some centres unmarked) [Compound 95]" reported_property="level of CDK2 protein degradation" value_measured="++ (31 to 60%)"

Let us examine a further case.
What the record says about Cc1nc2c(F)cc(-c3nc(Nc4ccc(S(=O)(=O)C5CCN(C6CCN(C7CN(c8cc9c(cc8F)C(=O)N(C8CCC(=O)NC8=O)C9=O)C7)CC6)CC5)cc4)ncc3F)cc2n1C(C)C (centres unmarked) [Compound 64] : level of CDK2 protein degradation is +++ (greater than 60%)
